The reported measurements were obtained from PubChem BioAssay (NCI).

Below: a set of entries, each annotated with reported GI50.
Test system: HCT-116 colon
Experiment: NCI tumour cell line growth inhibition, 48 h

{"columns": ["COMPOUND", "TGT", "GI50"],
 "data": [
  ["[Cl][Hg][c]1cc(Br)cc(Br)c1", "HCT-116 colon", "3.41 µM"],
  ["O=c1c2sc(=S)n(-c3ccc(F)cc3)c2ncn1Cc1ccc(F)cc1F", "HCT-116 colon", "81.8 µM"],
  ["CN(C)CCCNC(=O)c1cc2[nH]c3c(cnc4ccc([N+](=O)[O-])cc43)c(=O)c2n1C", "HCT-116 colon", "6.8 µM"],
  ["CCN(CC)CCOc1ccc(-c2nc3cc(Cl)ccc3s2)cc1", "HCT-116 colon", "1.25 µM"],
  ["Cn1cc(CO)c2c1C(=O)C=C(N1CC1)C2=O", "HCT-116 colon", "< 0.0106 µM"],
  ["Cc1ccc(C)c(C2=C(c3cn(C)c4ccccc34)C(=O)NC2=O)c1", "HCT-116 colon", "7.58 µM"],
  ["COc1cc(N(CCC#N)CCC#N)ccc1/C(N=Nc1ccc([N+](=O)[O-])cc1)=N/NC(=O)c1cc(Br)ccc1O", "HCT-116 colon", "29.9 µg/mL"],
  ["O=C1NC(=O)C(c2cnc3ccccn23)=C1c1cn2c3c(cc(F)cc13)CN(C(=O)N1CCCCC1)CC2", "HCT-116 colon", "3.35 µM"],
  ["CCOC(=O)CCCn1c(SC)nc2[nH]cc(-c3ccccc3)c2c1=O", "HCT-116 colon", "14.1 µM"],
  ["C=C(CNCc1ccccc1)c1ccc(C(=O)Nc2ccccc2N)cc1", "HCT-116 colon", "15 µM"],
  ["Clc1nc2ccccc2nc1CI", "HCT-116 colon", "1.95 µM"],
  ["COc1ccc(-n2cc(-c3cc(OC)c(OC)c(OC)c3)c(C(=O)C(F)(F)F)c2C)cc1", "HCT-116 colon", "6.93 µM"],
  ["O=C(Nc1nc2ccc(C(F)(F)F)cc2s1)c1cc(Cl)ccc1O", "HCT-116 colon", "0.414 µM"],
  ["COc1ccc(CN2C(=O)/C(=C\\C(=O)c3ccc(OCCN4CCCCC4)cc3)c3ccccc32)cc1", "HCT-116 colon", "1.54 µM"],
  ["COc1cc(C2CC(c3cccc(Br)c3)=NN2C(C)=O)cc(OC)c1OC (stereo not given)", "HCT-116 colon", "0.479 µM"]
]}

###

Tested on: DLD-1 colon
Experiment: NCI tumour cell line growth inhibition, 48 h

{"columns": ["MOLECULE", "TGT", "TGI"],
 "data": [
  ["Cn1c2c(c3ccccc31)C1CCCCCCC1C1C(=O)OC(=O)C21 (stereo not drawn)", "DLD-1 colon", "> 100 µM"],
  ["CC(C)c1ccccc1NC(=O)CCc1n[nH]c(=S)o1", "DLD-1 colon", "> 89.2 µM"],
  ["O=S1(=O)C[C@H](O)[C@H](O)CS1", "DLD-1 colon", "> 100 µM"],
  ["S=C(Nc1ccccc1)N(/N=C/C=C/c1ccccc1)c1nnc(-c2ccccc2)c(-c2ccccc2)n1", "DLD-1 colon", "> 100 µM"],
  ["CC1(C)COC(c2cccnc2/C=N/O)=N1", "DLD-1 colon", "> 100 µM"],
  ["Cc1cc([N+](=O)[O-])ccc1Nc1cccc(Cl)c1C", "DLD-1 colon", "33.5 µM"],
  ["S=C1NC2(CCCCCC2)NN1c1ccccc1", "DLD-1 colon", "> 100 µM"],
  ["Cc1cc(CC(O)c2ccc(Cl)c(Cl)c2)nc(=O)[nH]1 (stereo not drawn)", "DLD-1 colon", "> 100 µM"],
  ["COC(=O)C1=C(O)c2cc(OC)c(OC)cc2C(c2ccc(OC)c(OC)c2)C1 (stereo not drawn)", "DLD-1 colon", "> 100 µM"],
  ["CCOC(=O)C1(C#N)C(c2ccccc2)CC(O)(c2ccc(OC)cc2)C(C(=O)c2ccc(OC)cc2)C1c1ccccc1 (stereo not drawn)", "DLD-1 colon", "> 100 µM"],
  ["CC(C)(C)[Si](OC1CC(n2cnc3c(N)ncnc32)OC1CO)(c1ccccc1)c1ccccc1 (stereo not drawn)", "DLD-1 colon", "30 µM"],
  ["CN(C)c1ccc(C(C=C2c3ccccc3Sc3ccccc32)=C(C#N)C#N)cc1", "DLD-1 colon", "> 100 µM"],
  ["CC1=NNC(=O)C2CCC(=O)N12 (stereo not drawn)", "DLD-1 colon", "> 100 µM"],
  ["Cc1nn(-c2ccccc2)c2nc(N3CCOCC3)nnc12", "DLD-1 colon", "> 100 µM"],
  ["Cc1ccc(S(=O)(=O)N(CC(=O)O)c2ccccc2)cc1", "DLD-1 colon", "> 100 µM"],
  ["CC(C)N(C(=O)C12C3C4C5(C#N)C3C1(C#N)C5C42I)C(C)C (stereo not drawn)", "DLD-1 colon", "> 60.9 µM"],
  ["CC(=O)N(C)c1ccc(Nc2cc(C)[nH]c3ccc4ncnc4c23)cc1", "DLD-1 colon", "74.2 µM"],
  ["COc1ccc(C2C(Cl)C(=O)N2n2cnc3ccccc3c2=O)cc1 (stereo not drawn)", "DLD-1 colon", "> 100 µM"]
]}
